Quick reference: (B)/(A) of the listed items.
Test system: DC-3F/ADII cells
setupConditions: IC50 ratio DC-3F/ADII to DC-3F; * collaterally sensitive
Number only, in X; omit the unit.

                                   compound  measured
0  C=CC(C)(C)C12CC3c4nc5ccccc5c(=O)n4CC(=O)N3C1Nc1ccccc12 (stereo not drawn)       3.5

Exercise: Return reported (B)/(A); argument: C=CC(C)(C)C12CC3c4nc5ccccc5c(=O)n4C(C)C(=O)N3C1N(C(C)=O)c1ccccc12 (stereo not drawn)
Solution: 2.2

Exercise: Return reported (B)/(A); argument: C=CC(C)(C)C12CC3c4nc5ccccc5c(=O)n4CC(=O)N3C1N(C(C)=O)c1ccccc12 (stereo not drawn)
Solution: 0.50

* * *

System: DC-3F/ADII cells
setupConditions: read-out: IC50 for inhibiting cell growth; Table 7, DC-3F/SDII
endpointName: IC50 (nM)
Number only, in nM; omit the unit.

Exercise: Return reported IC50; argument: C=CC(C)(C)C12CC3c4nc5ccccc5c(=O)n4C(C)C(=O)N3C1N(C(C)=O)c1ccccc12 (stereo not shown)
Solution: 1590

* * *

System: CCRF-CEM cells
runDescription: Intracellular accumulation of [3H]vinblastine in CCRF-CEM cells
Format: cell-based, human
setupConditions: 30 μM, washed
Quick reference: [3H]vinblastine accumulation of the listed items.
Number only, in fmole/10^3 cells; omit the unit.

// solved cases for [3H]vinblastine accumulation follow
compound	experimentalTarget	unit	measured
C=CCC12CC3c4nc5ccccc5c(=O)n4C(C)C(=O)N3C1N(C(C)=O)c1ccccc12 (stereo not drawn) [5-N-Ac"Allyl" ardeemin, "Allyl" 5-N-acetylardeemin]	CCRF-CEM cells	fmole/10^3 cells	28.88
C=CC(C)(C)C12CC3C(=O)N(C(C)=O)C(C)C(=O)N3C1Nc1ccccc12 (stereo not drawn) [Imide-Ac-DKP 14(A), imide acetate diketopiperazine]	CCRF-CEM cells	fmole/10^3 cells	30.18
C=CC(C)(C)C12CC3C(=O)NC(C)C(=O)N3C1N(C(=O)C(F)(F)F)c1ccccc12 (stereo not drawn) [5N-F3 -Ac-DKP 14F(E), 5N-trifluoroacetyl diketopiperazine]	CCRF-CEM cells	fmole/10^3 cells	28.75
C=CC(C)(C)C12CC3C(=O)N(C(C)=O)C(C)C(=O)N3C1N(C(C)=O)c1ccccc12 (stereo not drawn) [Imide Di-Ac-DKP Amide 14(D), imide diacetate diketopiperazine]	CCRF-CEM cells	fmole/10^3 cells	28.36
C=CC(C)(C)C12CC3C(=O)NC(C)C(=O)N3C1Nc1ccccc12 (stereo not drawn) [Diketopiperazine 14(B), Diketopiperazine]	CCRF-CEM cells	fmole/10^3 cells	28.51

With those in mind, consider the next compound.
Exercise: Return reported [3H]vinblastine accumulation; argument: C=CC(C)(C)C12CC3C(=O)NC(C)C(=O)N3C1N(C(C)=O)c1ccccc12 (stereo not drawn) [5N-Ac-DKP 14(E), N-acetyldiketopiperazine]
Solution: 29.54

* * *

Quick reference: pIC50 of the listed items.
Test system: CCRF-CEM/VBL100 cells
runDescription: cells
setupConditions: Homo sapiens, read-out: IC50, mean ± spread, Table 5A, CCRF-CEM/VLB, mean
FYI, pIC50 means -log10 of a concentration in mol per litre.

molecule	pIC50
C=CC(C)(C)C12CC3C(=O)NC(C)C(=O)N3C1Nc1ccccc12 (stereo not drawn)	4.02
C=CC(C)(C)C12CC3C(=O)NC(C)C(=O)N3C1N(C(C)=O)c1ccccc12 (stereo not drawn) [5N-Ac-DKP 14(E), N-acetyldiketopiperazine]	3.46
C=CC(C)(C)C12CC3C(=O)N(C(C)=O)C(C)C(=O)N3C1N(C(C)=O)c1ccccc12 (stereo not drawn) [Imide Di-Ac-DKP Amide 14(D), imide diacetate diketopiperazine]	4.26
C=CC(C)(C)C12CC3C(=O)NCC(=O)N3C1N(C(C)=O)c1ccccc12 (stereo not drawn)	4.70
C=CC(C)(C)C12CC3C(=O)N(C(C)=O)C(C)C(=O)N3C1Nc1ccccc12 (stereo not drawn) [Imide-Ac-DKP 14(A), imide acetate diketopiperazine]	4.42

Exercise: Return reported pIC50; argument: C=CC(C)(C)C12CC3C(=O)N(C(=O)OC(C)(C)C)C(C)C(=O)N3C1Nc1ccccc12 (stereo not drawn) [Imide-BOC-DKP 14(C), imide-BOC diketopiperazine]
Solution: 4.03
